Attribution: PubChem BioAssay (NCI)

Experiment: NCI Yeast Anticancer Drug Screen. Data for the cln2 rad14 strain (AID 165);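 also: 0% = growth equal to vehicle treated cultures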
Settings: S. cerevisiae cln2 rad14 strain; at 50.0 µM unless noted
Compounds without any hit were thinned out: in the full panel of roughly 79,000, 15% have a hit. The source made the active and inactive calls. Rule as the data show it: active = growth inhibition above about 70%; inactive = the rest.
Classes used: true (active), false (inactive)

[
  {
    "compound": "CCNC(=O)COc1ccc(Cl)c(C)c1",
    "group": "false"
  },
  {
    "compound": "NC1CCC(C2CCC(N)CC2)CC1 (stereo unspecified)",
    "group": "false"
  },
  {
    "compound": "CC[N+]1(CC)CCOC(=O)C1",
    "group": "false"
  },
  {
    "compound": "Oc1ccccc1/C=N/N1C(=S)N(C23CC4CC(CC(C4)C2)C3)C(=Nc2ccccc2)C1=Nc1ccccc1",
    "group": "false"
  },
  {
    "compound": "COC1OC2COC(C)(C)OC2C2OC(C)(C)OC12 (stereo unspecified)",
    "group": "false"
  },
  {
    "compound": "O=c1[nH]c(=O)c2[nH]c(Br)nc2[nH]1",
    "group": "false"
  },
  {
    "compound": "COC(=O)CC1(C(=O)OC)NC(=O)c2cc(OC)c(Cl)cc2N1 (stereo unspecified)",
    "group": "false"
  },
  {
    "compound": "Cc1cccc(C)c1NC(=S)N/C=C(\\C#N)C(N)=O",
    "group": "false"
  },
  {
    "compound": "C=C(C)C(C)/C(C)=N/NC(N)=O (stereo unspecified) (tested in a mixture with another compound)",
    "group": "false"
  },
  {
    "compound": "CS(=O)(=O)c1cccc(C(=O)O)c1",
    "group": "false"
  },
  {
    "compound": "NC(=O)c1c([N+](=O)[O-])ncn1C1OC(CO)C(O)C1O (stereo unspecified)",
    "group": "false"
  },
  {
    "compound": "CC1=CCCC2C(C=O)(C1)CC(C)C2(CO)CC/C(=C/CO)CO (stereo unspecified)",
    "group": "false"
  },
  {
    "compound": "COc1cc2ccc(Cc3nccc4cc(OC)c(OC)cc34)cc2cc1OC",
    "group": "true"
  },
  {
    "compound": "CC(C)(C)C(=O)NC(OC(NC(=O)C(C)(C)C)C(=O)C(C)(C)C)C(=O)C(C)(C)C (stereo unspecified)",
    "group": "false"
  },
  {
    "compound": "NCCNc1ccccc1",
    "group": "false"
  },
  {
    "compound": "c1ccc(-c2cn(-c3ccccc3)nn2)cc1",
    "group": "false"
  },
  {
    "compound": "COC(C)(/C(C)=N/O)c1ccc(-c2ccccc2)cc1 (stereo unspecified)",
    "group": "false"
  },
  {
    "compound": "COc1cc2c[n+](C)c3c4cc(OC)c(OC)cc4c(OCc4ccccc4)cc3c2cc1OC",
    "group": "true"
  },
  {
    "compound": "COc1ccccc1NC(=O)c1ccccc1",
    "group": "false"
  },
  {
    "compound": "CC(Cl)S(=O)(=O)c1ccccc1 (stereo unspecified)",
    "group": "false"
  },
  {
    "compound": "Cc1ccc(S(=O)(=O)NC(=O)NC(C)C(=O)O)cc1 (stereo unspecified)",
    "group": "false"
  },
  {
    "compound": "COc1ccccc1CN1CCCN(Cc2ccccc2OC)C1c1ccc(N(C)C)cc1",
    "group": "false"
  },
  {
    "compound": "O=C1CN(c2cccc(C(F)(F)F)c2)C(=O)CN1/N=C/c1cccnc1",
    "group": "false"
  },
  {
    "compound": "O=C1Cc2c(-c3ccc(Cl)cc3)cc(-c3ccccc3)nc2-c2ccccc2N1",
    "group": "false"
  },
  {
    "compound": "N#CC(C(=S)Nc1ccccc1)=C1Nc2ccccc2N1",
    "group": "false"
  },
  {
    "compound": "OCCNc1ncnc2c1ncn2C1OC(CO)C(O)C1O (stereo unspecified)",
    "group": "false"
  },
  {
    "compound": "CC(=O)c1c(C)cc2cc(C)cc(O)c2c1O",
    "group": "false"
  },
  {
    "compound": "CN(N)c1nc(N)c(C#N)c(C#N)c1C#N",
    "group": "false"
  },
  {
    "compound": "CC(C)(O)C1CC(=O)C(C)(C2C(O)CC3(C)C4CC=C5C(CCC(O)C5(C)C)C4(C)C(=O)CC23C)O1 (stereo unspecified)",
    "group": "false"
  },
  {
    "compound": "O=P(O)(O)OP(=O)(O)O",
    "group": "false"
  },
  {
    "compound": "O=C1NCC1c1ccccc1 (stereo unspecified)",
    "group": "false"
  }
]

---

Experiment: NCI Yeast Anticancer Drug Screen. Data for the rad50 strain (AID 155);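 also: 0% = growth of vehicle-only cultures of the same strain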
Settings: S. cerevisiae rad50 strain growth inhibition; at 50.0 µM unless noted
About 79,000 compounds went through this panel and 15% of them were active in at least one assay; those are over-represented in the sample as a whole. The source made the active and inactive calls. Cut-off read from the data, not from the text of the source: active = growth inhibition above about 70%; inactive = the rest.
Classes used: active, inactive

[
  {
    "molecule": "NC(=O)c1ccccc1NC(=O)C(=O)C(C(=O)c1ccc(Cl)c(Cl)c1)C1OC(=O)c2ccccc21 (stereo not given)",
    "group": "inactive"
  },
  {
    "molecule": "COC(=O)N1C=NC2C3(C)C(C)=C(C)C3(C)C21C (stereo not given)",
    "group": "inactive"
  },
  {
    "molecule": "O=S(=O)([O-])[O-].O=c1[nH]cnc2[nH]ncc12.O=c1[nH]cnc2[nH]ncc12.[Zn+2]",
    "group": "inactive"
  },
  {
    "molecule": "O=c1cc2ccccc2nn1-c1ccccc1Cl",
    "group": "inactive"
  },
  {
    "molecule": "Nc1cc([N+](=O)[O-])ccc1C(=O)O",
    "group": "inactive"
  },
  {
    "molecule": "CC(=O)c1cccc(N=NN(C)C)c1",
    "group": "inactive"
  },
  {
    "molecule": "CCSC(SCC)C(NC(C)=O)C(O)C(O)C(O)CO (stereo not given)",
    "group": "inactive"
  },
  {
    "molecule": "CN(Cc1ccccc1)C(=O)Nc1ccc(Cl)c(Cl)c1",
    "group": "active"
  },
  {
    "molecule": "CN=Nc1c(O)[nH]c2ccc(C)cc12",
    "group": "inactive"
  },
  {
    "molecule": "COc1ccc(C=NCC(OC)OC)cc1OCc1ccccc1",
    "group": "inactive"
  },
  {
    "molecule": "CCOC(=O)C1=C(O)c2ccccc2C(=O)C1=O",
    "group": "inactive"
  },
  {
    "molecule": "Cc1ccnc(NC#N)n1",
    "group": "inactive"
  },
  {
    "molecule": "CCOC(=O)C(C)(c1[nH]c2ccccc2c1C)c1[nH]c2ccccc2c1C",
    "group": "inactive"
  },
  {
    "molecule": "O=S(=O)(Cc1nc2ccccc2[nH]1)Cc1nc2ccccc2[nH]1",
    "group": "inactive"
  },
  {
    "molecule": "Cc1ccc2c(c1)P(=O)(O)c1cc(C)ccc1S2",
    "group": "inactive"
  }
]

---

Assay: NCI Yeast Anticancer Drug Screen. Data for the cln2 rad14 strain (AID 165);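 also: 0% = growth equal to vehicle treated cultures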
Settings: S. cerevisiae cln2 rad14 strain, active compounds read high; at 50.0 µM unless noted
This is part of a sample that, as a whole, favours compounds with a hit. Of some 79,000 tested, about 15% had one in any assay.
Consider the following molecules and their measured growth inhibition readings.

[
  {
    "molecule": "Cc1c(C(=O)CC(=O)C(=O)Nc2ccc(Cl)c(Cl)c2)[n+](=O)c2ccccc2n1[O-]",
    "growth inhibition (%)": 34.5
  },
  {
    "molecule": "CN(C)CC1(C)CC/C(=C\\c2ccc3c(c2)OCO3)C1=O (centres undefined)",
    "growth inhibition (%)": 51.9
  },
  {
    "molecule": "N#CC(C(=O)NN)C1CCCCC1 (centres undefined)",
    "growth inhibition (%)": -0.1
  },
  {
    "molecule": "S=C(NC1CCCCC1)SSSSC(=S)NC1CCCCC1",
    "growth inhibition (%)": 9.55
  },
  {
    "molecule": "O=C(CC(CC(=O)C(c1ccccc1)c1ccccc1)c1ccccc1)C(c1ccccc1)c1ccccc1",
    "growth inhibition (%)": -0.6
  },
  {
    "molecule": "COP(=O)(OC)/C(=C/c1cn(C(C)=O)c2ccccc12)NC(C)=O",
    "growth inhibition (%)": 13.1
  },
  {
    "molecule": "Nc1c(F)cc(I)cc1F",
    "growth inhibition (%)": -43
  },
  {
    "molecule": "NC(=S)/N=C/c1c(O)c2ccccc2oc1=O",
    "growth inhibition (%)": 3.5
  },
  {
    "molecule": "CC(=O)Oc1cccc2c1C(=O)c1c(OC(C)=O)cc(C)cc1C2=O",
    "growth inhibition (%)": -0.85
  },
  {
    "molecule": "CC1=Nc2ccc([N+](=O)[O-])cc2C1(C)C",
    "growth inhibition (%)": -2.15
  },
  {
    "molecule": "[N-]=[N+]=Nc1ccc2nc(N)nc(N)c2c1",
    "growth inhibition (%)": -33.9
  },
  {
    "molecule": "CC1=Nc2ccccc2SC2(C1)C(C1COC(C)(C)O1)OC1OC(C)(C)OC12 (centres undefined)",
    "growth inhibition (%)": 21.4
  },
  {
    "molecule": "CCOC(=O)c1sc(N)nc1N1CCCC1",
    "growth inhibition (%)": 10.1
  },
  {
    "molecule": "CCN(CC)c1cc(C)c2cc(Cc3ccccc3)ccc2n1",
    "growth inhibition (%)": 31.8
  },
  {
    "molecule": "O=C1CN(Cc2cccc(Cl)c2)CC(=O)N2Cc3ccccc3CN12",
    "growth inhibition (%)": -10.8
  },
  {
    "molecule": "COC(=O)/C(C#N)=N/O",
    "growth inhibition (%)": 8.4
  },
  {
    "molecule": "CCc1nnc2c(C)c(C)nc(C)n12",
    "growth inhibition (%)": -16.1
  },
  {
    "molecule": "O=C1c2ccccc2C(=O)C1c1ccc2ccccc2n1",
    "growth inhibition (%)": 2.6
  },
  {
    "molecule": "CC(C)OC(=O)CCC(N)C(=O)O (centres undefined)",
    "growth inhibition (%)": -4.8
  }
]
